test.system: HMG-CoA reductase (Rattus norvegicus)
Construct: the supernatant was ultracentrifuged (100,000×g for 60 minutes) to obtain microsomal precipitates; from tissue; host or cells: liver microsomes of treated rats
Sequence (P51639 1-887): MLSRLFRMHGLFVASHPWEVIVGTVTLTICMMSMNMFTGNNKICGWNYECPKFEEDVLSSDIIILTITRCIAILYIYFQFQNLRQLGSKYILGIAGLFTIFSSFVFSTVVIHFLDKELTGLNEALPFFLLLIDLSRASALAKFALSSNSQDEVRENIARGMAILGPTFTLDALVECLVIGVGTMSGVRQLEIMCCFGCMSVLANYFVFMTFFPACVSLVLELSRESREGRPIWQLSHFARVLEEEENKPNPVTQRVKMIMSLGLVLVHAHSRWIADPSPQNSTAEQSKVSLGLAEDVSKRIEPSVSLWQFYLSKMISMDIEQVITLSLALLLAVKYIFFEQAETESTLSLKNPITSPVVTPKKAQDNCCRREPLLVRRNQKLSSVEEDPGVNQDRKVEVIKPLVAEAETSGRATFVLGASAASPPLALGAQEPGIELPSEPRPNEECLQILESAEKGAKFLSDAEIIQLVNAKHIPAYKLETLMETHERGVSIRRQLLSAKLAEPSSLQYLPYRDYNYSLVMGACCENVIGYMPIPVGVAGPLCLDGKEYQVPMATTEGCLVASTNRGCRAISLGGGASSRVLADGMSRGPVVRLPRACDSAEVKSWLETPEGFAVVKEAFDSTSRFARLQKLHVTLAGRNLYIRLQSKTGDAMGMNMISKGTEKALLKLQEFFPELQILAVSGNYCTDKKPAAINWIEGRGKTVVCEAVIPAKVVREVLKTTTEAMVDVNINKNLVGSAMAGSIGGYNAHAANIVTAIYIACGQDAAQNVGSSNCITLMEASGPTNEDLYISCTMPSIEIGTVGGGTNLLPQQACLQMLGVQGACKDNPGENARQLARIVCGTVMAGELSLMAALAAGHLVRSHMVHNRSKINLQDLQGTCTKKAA
assay.method.text: HMG-CoA reductase activity in liver microsomes of treated rats (Experimental Example 6, Step 4)
Format: in vivo
Parameters: unit not given here
experimental.context: activity in liver microsomes of rats fed 6 weeks; CoA-SH by absorbance at 412 nm; average
Experimental: In order to measure the activity of HMG-CoA reductase, the method described by Hulcher et al. (J. Lipid Res., 14, 625-641 (1973)) was employed after some modification. In this method, the concentration of the coenzyme-A (CoA-SH), which is produced when HMG-CoA is reduced to a mevalonate salt by the action of HMG-CoA reductase, is determined by spectroscopy and the activity of HMG-CoA reductase is calculated therefrom. […]
A collection of compounds and their measured HMG-CoA reductase
Lab note: record just the number, no unit beside it.

Look over these answered cases.
compound: CC[C@H](C)C(=O)O[C@H]1C[C@@H](C)C=C2C=C[C@H](C)[C@H](CC[C@@H]3C[C@@H](O)CC(=O)O3)[C@H]21 [Lovastatin, reference compound]
test.system: HMG-CoA reductase (Rattus norvegicus)
HMG-CoA reductase: 173.25

compound: O=C(O)CC(NC(=O)CCc1ccc(O)c(O)c1)C(=O)O (stereo not shown)
test.system: HMG-CoA reductase (Rattus norvegicus)
HMG-CoA reductase: 136.15

compound: COC(=O)C(CO)NC(=O)CCc1ccc(O)c(O)c1 (stereo not shown)
test.system: HMG-CoA reductase (Rattus norvegicus)
HMG-CoA reductase: 196.11

# context switch: different compound, same HMG-CoA reductase
Give the reported HMG-CoA reductase for this compound. CC(C)CC(NC(=O)CCc1ccc(O)c(O)c1)C(=O)O (stereo not shown)
124.74
